assay: Partition coefficient, log P of the compound; format: physicochemical; details: octanol/water

{"columns": ["molecule", "logP"],
 "data": [
  ["COC(=O)c1cn(C2CC2)c2cc(N3CCNCC3)c(F)cc2c1=O", -0.441],
  ["CCCOC(=O)c1cn(C2CC2)c2cc(N3CCNCC3)c(F)cc2c1=O", 0.437],
  ["CCOC(=O)c1cn(C2CC2)c2cc(N3CCNCC3)c(F)cc2c1=O [CIPROFLOXACIN ETHYL ESTER]", -0.065]
]}

###

test system: Staphylococcus aureus; experiment: Antibacterial activity against Staphylococcus aureus NCDC 110 after overnight incubation by single disc method; assay type: functional
measurement_kind: MIC

{"columns": ["molecule", "recorded_value"],
 "data": [
  ["COc1c(N2CCNC(C)C2)c(F)cc2c(=O)c(C(=O)O)cn(C3CC3)c12 (centres undefined)", "5 to 100 mg/L"],
  ["O=C(CN1CCN(c2cc3c(cc2F)c(=O)c(C(=O)O)cn3C2CC2)CC1)Nc1nc2c(Cl)ccc(Cl)c2s1", "3 to 125 mg/L"],
  ["O=C(CN1CCN(c2cc3c(cc2F)c(=O)c(C(=O)O)cn3C2CC2)CC1)Nc1nc2ccc([N+](=O)[O-])cc2s1", "3 to 125 mg/L"],
  ["O=C(CN1CCN(c2cc3c(cc2F)c(=O)c(C(=O)O)cn3C2CC2)CC1)Nc1nc2ccc(Cl)cc2s1", "3 to 15 mg/L"]
]}
